- MEASUREMENT_TARGET: CXCR3 (Macaca fascicularis, UniProt A0A2K5UV19)
- Sequence (A0A2K5UV19 entry or part of it): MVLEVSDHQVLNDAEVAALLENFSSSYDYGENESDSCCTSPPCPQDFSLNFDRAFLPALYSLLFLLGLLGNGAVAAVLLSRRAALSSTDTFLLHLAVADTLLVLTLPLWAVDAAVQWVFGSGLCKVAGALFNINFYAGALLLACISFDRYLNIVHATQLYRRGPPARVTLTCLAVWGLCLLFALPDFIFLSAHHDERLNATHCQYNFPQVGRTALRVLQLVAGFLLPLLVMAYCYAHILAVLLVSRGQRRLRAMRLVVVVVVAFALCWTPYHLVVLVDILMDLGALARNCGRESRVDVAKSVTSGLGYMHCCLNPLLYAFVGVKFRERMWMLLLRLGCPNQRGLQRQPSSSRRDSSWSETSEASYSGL
- ASSAY_PROCEDURE: functional cellular assay measuring calcium flux in CXCR3 transfected cells (block of CXCR3/IP-10 interaction)
- STATED_CONDITIONS: IP-10 induced intracellular calcium flux; Cyno-CHO cells stably expressing recombinant CXCR3 and G-alpha-16
OBSERVATION_TYPE: IC50 (nM)

Completed entries (count: 3):
The recorded IC50 for Cc1cc(C)n(CC(=O)N2CCN(c3ccccc3C(=O)Nc3ccnc(Cl)c3)CC2)n1 is 7.2

The recorded IC50 for Cc1csc(NC(=O)c2ccccc2N2CCN(C(=O)Cn3nc(C)cc3C)CC2)n1 is 12

The recorded IC50 for Cc1cc(C)n(CC(=O)N2CCN(c3ccccc3C(=O)Nc3nc(-c4ccccn4)cs3)CC2)n1 is 11.5

[P] Cc1cc(C)n(CC(=O)N2CCN(c3ccccc3C(=O)Nc3ccc(S(C)(=O)=O)cc3)CC2)n1
[Q] COc1cc(NC(=O)c2ccccc2N2CCN(C(=O)CN3Cc4ccccc4C3=O)CC2)ccn1
Exercise: I'd appreciate it if you could identify which of P and Q has the greater IC50. Your answer should be the label attached to the chosen record.
Solution: P

[A] Cc1cc(C)n(CC(=O)N2CCN(c3ncc(Cl)cc3NC(=O)c3cccc(C(F)(F)F)c3)CC2)n1
[B] N#Cc1ccc(NC(=O)c2ccccc2N2CCN(C(=O)Cn3ccc4cccnc43)CC2)cn1
Exercise: Hey, which is lower on measured IC50, A or B ? Your answer should be the label attached to the chosen record.
Solution: B
(B: 6.3 nM, A: 10.6 nM)
